Entries and their measured self-splicing fitness (ln) follow.
# assay.protocol: self-splicing fitness, log relative to wild type (ln ratio); higher = more splicing; Tetrahymena group I intron in knt gene, E. coli kanamycin selection, DiMSum; sequences stand for … in CUCUCU…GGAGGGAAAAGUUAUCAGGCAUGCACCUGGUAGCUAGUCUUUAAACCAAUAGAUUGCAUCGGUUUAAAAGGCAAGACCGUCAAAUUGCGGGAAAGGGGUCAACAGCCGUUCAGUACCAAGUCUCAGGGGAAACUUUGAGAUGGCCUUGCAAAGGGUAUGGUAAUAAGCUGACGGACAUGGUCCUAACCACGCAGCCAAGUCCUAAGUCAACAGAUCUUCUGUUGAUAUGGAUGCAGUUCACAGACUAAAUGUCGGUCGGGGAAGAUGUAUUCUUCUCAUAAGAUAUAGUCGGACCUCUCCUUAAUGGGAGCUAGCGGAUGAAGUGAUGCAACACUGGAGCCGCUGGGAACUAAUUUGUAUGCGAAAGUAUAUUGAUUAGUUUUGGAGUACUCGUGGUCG;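 note: selection with 25 µg/mL kanamycin versus none on LB agar overnight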
# details: 30 °C
measure: self-splicing fitness (ln)

In [3]: df
Out[3]:
                residues   value
 0  ACCGAGCAAUAUUACGCCCU    -2.6
 1  AAAUAGCAAUAUUACGAACC   -1.91
 2  GGCCAGCAAUAUUACGGGCA   -1.06
 3  UCAAAGCAAUAUUACGCCCG   -1.66
 4  CACCAGCAAUAUUACGUAGG  -0.739
 5  GAAGAGCAAUAUUACGGUCC   -2.17
 6  GCUGAGCAAUAUUACGUGUA    -2.4
 7  GGUGAGCAAUAUUACGUUAG   -3.01
 8  UUACAGCAAUAUUACGAUUC   -2.03
 9  UUCGAGCAAUAUUACGCGAG   -2.72
10  ACAUAGCAAUAUUACGCAUU   -3.32
11  AAUUAGCAAUAUUACGUUUA    -1.6
12  ACGUAGCAAUAUUACGGGGC   -4.11
13  CGUUAGCAAUAUUACGGCGU   -3.75
14  UUAAAGCAAUAUUACGCGUU   -2.44
15  GUUGAGCAAUAUUACGAUCG   -1.18
16  CUCUAGCAAUAUUACGGCAA   -2.38
17  AUGGAGCAAUAUUACGGACU    -1.2
18  UGAGAGCAAUAUUACGCCCG   -3.12
19  CAGUAGCAAUAUUACGGUAU   -3.79
20  ACUCAGCAAUAUUACGCUGG   -2.43
21  UUGUAGCAAUAUUACGUCUC   -3.54
22  CACAAGCAAUAUUACGUCCU   -1.84
23  GCCAAGCAAUAUUACGAGAU   -2.41
24  CAACAGCAAUAUUACGAGCC   -3.76
25  CCAAAGCAAUAUUACGCCGU   -3.25
26  CUUCAGCAAUAUUACGUUCA   -3.63
27  CAUUAGCAAUAUUACGGACA   -2.45
28  AAGCAGCAAUAUUACGUCUC   -1.28
29  AAAGAGCAAUAUUACGUACU   -1.21
30  UUAAAGCAAUAUUACGUUGG   -1.12
31  ACCCAGCAAUAUUACGUAGU  0.0959
32  CAGUAGCAAUAUUACGAGGG   -2.85
33  CGUCAGCAAUAUUACGGUUC   -3.67
34  CCGCAGCAAUAUUACGAUGG   -4.91
35  UACAAGCAAUAUUACGUCUG  -0.521
36  AUCCAGCAAUAUUACGGGGC   -2.89
37  GGAUAGCAAUAUUACGUCAG   -2.87
38  AGCCAGCAAUAUUACGGCCU   -2.07
39  GCUGAGCAAUAUUACGCAAC   -2.18
40  GACAAGCAAUAUUACGGUUC   -3.57
41  GGCCAGCAAUAUUACGCUCU  -0.639
42  CCAAAGCAAUAUUACGCCCG  -0.324
43  GGACAGCAAUAUUACGCAAA   -1.19
44  GCGAAGCAAUAUUACGAUAC   -1.99
45  ACGCAGCAAUAUUACGAUAC   -2.56
46  GGACAGCAAUAUUACGCGAG   -1.24
47  UUAUAGCAAUAUUACGUGUA   -2.46
48  UCUCAGCAAUAUUACGAGGG   -2.87
49  CUAUAGCAAUAUUACGAUUA   -3.05
50  CGACAGCAAUAUUACGGCAA   -2.12
51  UGCAAGCAAUAUUACGCGUU   -2.66
52  AGUCAGCAAUAUUACGGCCG   -1.28
53  CUUUAGCAAUAUUACGCCUA   -3.11
54  UAUUAGCAAUAUUACGAUCG  -0.211
55  GGACAGCAAUAUUACGCGUA  -0.744
56  UAAAAGCAAUAUUACGGUUG   -1.53
57  AUAUAGCAAUAUUACGUCCC   -1.01
58  UGACAGCAAUAUUACGGCUG   -2.28
59  GCCAAGCAAUAUUACGUCGA   -2.34
60  ACCGAGCAAUAUUACGACAC   -3.48
61  ACCCAGCAAUAUUACGAGCU   -4.29
62  GUUCAGCAAUAUUACGCCUG   -1.97
63  UGAGAGCAAUAUUACGAAGA   -1.45
64  GGCGAGCAAUAUUACGAUUC  -0.495
65  AUGCAGCAAUAUUACGGAAA   -1.86
66  AUUUAGCAAUAUUACGCCAC   -3.24
